Molecular target: UniProtKB Q9Y243
Sequence (Q9Y243 whole entry): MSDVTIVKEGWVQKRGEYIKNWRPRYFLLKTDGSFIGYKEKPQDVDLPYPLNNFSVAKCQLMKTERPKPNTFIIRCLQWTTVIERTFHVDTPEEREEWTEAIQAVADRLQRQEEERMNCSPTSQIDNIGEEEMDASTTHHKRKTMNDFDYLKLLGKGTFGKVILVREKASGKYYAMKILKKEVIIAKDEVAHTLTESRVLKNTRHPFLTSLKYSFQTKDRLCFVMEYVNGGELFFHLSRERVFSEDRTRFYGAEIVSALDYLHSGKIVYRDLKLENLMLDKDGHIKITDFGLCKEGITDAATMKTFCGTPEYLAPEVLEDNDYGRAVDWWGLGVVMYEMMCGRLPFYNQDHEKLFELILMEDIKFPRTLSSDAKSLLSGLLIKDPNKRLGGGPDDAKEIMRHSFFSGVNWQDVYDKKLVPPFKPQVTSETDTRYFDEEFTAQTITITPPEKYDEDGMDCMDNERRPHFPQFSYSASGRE
Assay: Tyrosine kinase inhibition assay
Format: biochemical
Settings: single concentration 1.0 μM, read-out: percent inhibition
# inhibition at 1 µM per entry
Give the value, in units of %, as a plain number.

Example cases with answers are listed next.
Compound: COc1cc2nccc(Oc3ccc(NC(=O)C4(C(=O)Nc5ccc(F)cc5)CC4)cc3F)c2cc1Oc1ccc(N)cc1F [Cbo-23]
Measurement Units: %
inhibition at 1 µM: -1
//
Compound: COc1cc2nccc(Oc3ccc(NC(=O)C4(NC(=O)c5ccc(F)cc5)CC4)cc3F)c2cc1Oc1ccc(N)cc1F [Cbo-10]
Measurement Units: %
inhibition at 1 µM: 7
//
Compound: COc1cc2nccc(Oc3ccc(NC(=O)C4(NC(=O)c5ccc(F)cc5)CC4)cc3F)c2cc1OC [Cbo-02]
Measurement Units: %
inhibition at 1 µM: 5
//
Compound: COc1cc2nccc(Oc3ccc(NC(=O)C4(C(=O)Nc5ccc(F)cc5)CC4)cc3)c2cc1OC [Cabozantinib, reference compound]
Measurement Units: %
inhibition at 1 µM: 8

Here's the next entry for you.
Query: Suppose we examine the compound COc1cc2nccc(Oc3ccc(NC(=O)C4(NC(=O)c5ccc(F)cc5)CC4)cc3F)c2cc1Oc1c(F)cc(N)cc1F [Cbo-14] ; what inhibition at 1 µM value has been reported?
Result: 6

* * *

Target: MAPK8 (JNK1) (Homo sapiens, UniProt P45983)
Sequence (P45983 whole entry): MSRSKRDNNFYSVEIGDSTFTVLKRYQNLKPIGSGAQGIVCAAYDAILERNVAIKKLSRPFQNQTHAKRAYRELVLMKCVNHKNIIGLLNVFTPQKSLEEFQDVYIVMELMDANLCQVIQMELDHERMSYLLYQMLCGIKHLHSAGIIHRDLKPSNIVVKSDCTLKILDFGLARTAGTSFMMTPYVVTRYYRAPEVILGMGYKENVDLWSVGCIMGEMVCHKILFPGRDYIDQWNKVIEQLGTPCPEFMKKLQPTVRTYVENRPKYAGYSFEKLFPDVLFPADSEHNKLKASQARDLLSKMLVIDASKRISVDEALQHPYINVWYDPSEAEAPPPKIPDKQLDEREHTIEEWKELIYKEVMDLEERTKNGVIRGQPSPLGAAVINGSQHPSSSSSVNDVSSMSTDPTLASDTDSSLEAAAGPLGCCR
Assay: Tyrosine kinase inhibition assay
Type: biochemical
Conditions: single concentration 1.0 μM, read-out: percent inhibition
compounds and their reported inhibition at 1 µM

In the examples that follow, each entry is paired with its recorded inhibition at 1 µM.
Compound: COc1cc2nccc(Oc3ccc(NC(=O)C4(C(=O)Nc5ccc(F)cc5)CC4)cc3F)c2cc1Oc1ccc(N)cc1F
Measurement Kind: inhibition at 1 µM
Experimental Result: -2%

Compound: COc1cc2nccc(Oc3ccc(NC(=O)C4(NC(=O)c5ccc(F)cc5)CC4)cc3F)c2cc1Oc1c(F)cc(N)cc1F
Measurement Kind: inhibition at 1 µM
Experimental Result: 41%

Compound: COc1cc2nccc(Oc3ccc(NC(=O)C4(NC(=O)c5ccc(F)cc5)CC4)cc3F)c2cc1OC
Measurement Kind: inhibition at 1 µM
Experimental Result: 5%

Compound: COc1cc2nccc(Oc3ccc(NC(=O)C4(NC(=O)c5ccc(F)cc5)CC4)cc3F)c2cc1Oc1ccc(N)cc1F
Measurement Kind: inhibition at 1 µM
Experimental Result: 32%

Then there is this compound:
Query: What value of measured inhibition at 1 µM is listed for COc1cc2nccc(Oc3ccc(NC(=O)C4(C(=O)Nc5ccc(F)cc5)CC4)cc3)c2cc1OC [Cabozantinib, reference compound] ?
Result: -2%

* * *

Items are presented alongside their recorded inhibition at 1 µM.
Biological target: UniProtKB P06239
Sequence (P06239 whole entry): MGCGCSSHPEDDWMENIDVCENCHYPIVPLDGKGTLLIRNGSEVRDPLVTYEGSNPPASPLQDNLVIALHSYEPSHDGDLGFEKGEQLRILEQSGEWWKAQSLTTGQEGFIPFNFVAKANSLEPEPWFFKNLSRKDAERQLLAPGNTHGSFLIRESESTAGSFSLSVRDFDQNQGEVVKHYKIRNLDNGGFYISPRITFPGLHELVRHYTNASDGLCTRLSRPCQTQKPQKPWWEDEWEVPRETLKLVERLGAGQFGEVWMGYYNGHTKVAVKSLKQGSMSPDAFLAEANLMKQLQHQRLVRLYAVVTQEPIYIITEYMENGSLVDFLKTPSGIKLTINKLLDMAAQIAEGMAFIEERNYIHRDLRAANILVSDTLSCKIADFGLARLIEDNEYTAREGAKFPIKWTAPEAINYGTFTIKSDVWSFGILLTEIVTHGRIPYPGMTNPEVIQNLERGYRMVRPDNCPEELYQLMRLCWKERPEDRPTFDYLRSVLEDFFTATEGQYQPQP
Assay: Tyrosine kinase inhibition assay
Format: biochemical
Settings: single concentration 1.0 μM, read-out: percent inhibition
Give a bare numeral; the unit % is implied.

Examples from the recorded data:
Compound: COc1cc2nccc(Oc3ccc(NC(=O)C4(NC(=O)c5ccc(F)cc5)CC4)cc3F)c2cc1Oc1ccc(N)cc1F
Experimental System: UniProtKB P06239
Experimental Result: 96

Compound: COc1cc2nccc(Oc3ccc(NC(=O)C4(C(=O)Nc5ccc(F)cc5)CC4)cc3)c2cc1OC [Cabozantinib, reference compound]
Experimental System: UniProtKB P06239
Experimental Result: 95

Compound: COc1cc2nccc(Oc3ccc(NC(=O)C4(C(=O)Nc5ccc(F)cc5)CC4)cc3F)c2cc1Oc1ccc(N)cc1F
Experimental System: UniProtKB P06239
Experimental Result: 99

Compound: COc1cc2nccc(Oc3ccc(NC(=O)C4(NC(=O)c5ccc(F)cc5)CC4)cc3F)c2cc1OC
Experimental System: UniProtKB P06239
Experimental Result: 85

Query: Look at this compound and give its reported inhibition at 1 µM. COc1cc2nccc(Oc3ccc(NC(=O)C4(NC(=O)c5ccc(F)cc5)CC4)cc3F)c2cc1Oc1c(F)cc(N)cc1F
Result: 97

* * *

Target: FYN A (Homo sapiens, UniProt P06241)
Sequence (P06241 whole entry): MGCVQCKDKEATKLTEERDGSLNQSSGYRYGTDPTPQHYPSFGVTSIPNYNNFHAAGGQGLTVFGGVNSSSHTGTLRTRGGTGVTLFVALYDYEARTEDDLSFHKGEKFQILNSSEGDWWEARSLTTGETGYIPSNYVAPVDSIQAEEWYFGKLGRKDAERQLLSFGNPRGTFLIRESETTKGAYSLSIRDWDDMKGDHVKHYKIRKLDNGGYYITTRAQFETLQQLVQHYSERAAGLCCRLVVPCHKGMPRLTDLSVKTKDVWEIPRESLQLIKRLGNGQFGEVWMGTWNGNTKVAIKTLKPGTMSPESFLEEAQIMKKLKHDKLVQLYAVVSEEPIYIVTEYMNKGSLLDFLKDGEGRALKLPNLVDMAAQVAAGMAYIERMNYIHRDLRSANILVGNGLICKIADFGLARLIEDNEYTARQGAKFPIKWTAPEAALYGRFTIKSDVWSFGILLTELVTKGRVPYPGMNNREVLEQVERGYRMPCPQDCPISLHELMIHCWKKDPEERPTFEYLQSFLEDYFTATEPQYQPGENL
Test: Tyrosine kinase inhibition assay
Format: biochemical
Conditions: single concentration 1.0 μM, read-out: percent inhibition
Measurement Kind: inhibition at 1 µM
I'd appreciate it if you wrote the number followed by its unit.

See these solved cases before continuing.
Compound: COc1cc2nccc(Oc3ccc(NC(=O)C4(NC(=O)c5ccc(F)cc5)CC4)cc3F)c2cc1Oc1c(F)cc(N)cc1F
inhibition at 1 µM: 57%
--
Compound: COc1cc2nccc(Oc3ccc(NC(=O)C4(C(=O)Nc5ccc(F)cc5)CC4)cc3)c2cc1OC [Cabozantinib, reference compound]
inhibition at 1 µM: 74%
--
Compound: COc1cc2nccc(Oc3ccc(NC(=O)C4(NC(=O)c5ccc(F)cc5)CC4)cc3F)c2cc1OC
inhibition at 1 µM: 30%
--
Compound: COc1cc2nccc(Oc3ccc(NC(=O)C4(NC(=O)c5ccc(F)cc5)CC4)cc3F)c2cc1Oc1ccc(N)cc1F
inhibition at 1 µM: 47%

Query compound follows.
Query: What value of measured inhibition at 1 µM is listed for COc1cc2nccc(Oc3ccc(NC(=O)C4(C(=O)Nc5ccc(F)cc5)CC4)cc3F)c2cc1Oc1ccc(N)cc1F ?
Result: 70%

* * *

compounds and their reported inhibition at 1 µM
Target: LYN A (Homo sapiens)
Sequence (P07948 whole entry): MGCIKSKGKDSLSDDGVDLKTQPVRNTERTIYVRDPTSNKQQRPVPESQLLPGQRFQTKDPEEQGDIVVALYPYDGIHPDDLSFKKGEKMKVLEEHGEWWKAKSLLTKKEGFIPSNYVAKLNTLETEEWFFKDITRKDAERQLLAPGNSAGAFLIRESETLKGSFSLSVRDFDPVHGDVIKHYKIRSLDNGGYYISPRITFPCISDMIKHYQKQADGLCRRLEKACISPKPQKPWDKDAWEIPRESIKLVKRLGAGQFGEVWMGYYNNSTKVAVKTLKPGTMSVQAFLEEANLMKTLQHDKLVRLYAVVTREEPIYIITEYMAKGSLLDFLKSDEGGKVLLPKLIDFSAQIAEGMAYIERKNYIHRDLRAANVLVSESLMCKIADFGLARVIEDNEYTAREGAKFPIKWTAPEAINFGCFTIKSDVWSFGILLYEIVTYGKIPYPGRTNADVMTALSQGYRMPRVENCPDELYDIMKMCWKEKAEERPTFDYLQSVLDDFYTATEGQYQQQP
Test: Tyrosine kinase inhibition assay
Assay type: biochemical
Settings: single concentration 1.0 μM, read-out: percent inhibition
Number in %, nothing else.

Compound: COc1cc2nccc(Oc3ccc(NC(=O)C4(C(=O)Nc5ccc(F)cc5)CC4)cc3)c2cc1OC [Cabozantinib, reference compound]
inhibition at 1 µM / %: 92
//
Compound: COc1cc2nccc(Oc3ccc(NC(=O)C4(NC(=O)c5ccc(F)cc5)CC4)cc3F)c2cc1OC [Cbo-02]
inhibition at 1 µM / %: 71
//
Compound: COc1cc2nccc(Oc3ccc(NC(=O)C4(NC(=O)c5ccc(F)cc5)CC4)cc3F)c2cc1Oc1ccc(N)cc1F [Cbo-10]
inhibition at 1 µM / %: 81
//
Compound: COc1cc2nccc(Oc3ccc(NC(=O)C4(NC(=O)c5ccc(F)cc5)CC4)cc3F)c2cc1Oc1c(F)cc(N)cc1F [Cbo-14]
inhibition at 1 µM / %: 86

Query: Which inhibition at 1 µM value is on record for COc1cc2nccc(Oc3ccc(NC(=O)C4(C(=O)Nc5ccc(F)cc5)CC4)cc3F)c2cc1Oc1ccc(N)cc1F [Cbo-23] ?
Result: 92

* * *

Below: a set of entries, each annotated with reported inhibition at 1 µM.
Biological target: FGFR2 (Homo sapiens)
Sequence (P21802 22-821): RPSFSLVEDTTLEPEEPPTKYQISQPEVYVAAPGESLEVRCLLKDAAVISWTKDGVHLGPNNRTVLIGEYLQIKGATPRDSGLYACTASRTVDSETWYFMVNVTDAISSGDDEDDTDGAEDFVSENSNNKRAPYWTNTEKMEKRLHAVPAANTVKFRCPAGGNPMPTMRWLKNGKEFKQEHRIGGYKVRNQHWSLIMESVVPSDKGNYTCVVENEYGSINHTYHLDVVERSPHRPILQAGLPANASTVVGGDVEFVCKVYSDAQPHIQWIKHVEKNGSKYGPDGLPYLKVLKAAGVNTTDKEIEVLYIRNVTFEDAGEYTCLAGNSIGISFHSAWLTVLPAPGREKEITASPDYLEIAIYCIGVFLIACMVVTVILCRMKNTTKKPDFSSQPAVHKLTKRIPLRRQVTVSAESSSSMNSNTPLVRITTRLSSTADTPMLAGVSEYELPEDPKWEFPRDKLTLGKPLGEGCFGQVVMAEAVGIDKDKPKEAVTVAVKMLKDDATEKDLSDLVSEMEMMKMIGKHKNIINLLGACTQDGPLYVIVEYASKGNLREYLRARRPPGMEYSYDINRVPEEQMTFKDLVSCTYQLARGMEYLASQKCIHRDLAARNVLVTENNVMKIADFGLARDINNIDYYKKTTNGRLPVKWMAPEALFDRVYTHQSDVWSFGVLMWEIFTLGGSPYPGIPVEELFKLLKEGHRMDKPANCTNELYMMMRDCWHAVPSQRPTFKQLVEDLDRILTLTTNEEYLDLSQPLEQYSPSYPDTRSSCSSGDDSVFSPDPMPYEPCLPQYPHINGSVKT
Test: Tyrosine kinase inhibition assay
Assay type: biochemical
Details: single concentration 1.0 μM, read-out: percent inhibition

Query: What does the data say about its inhibition at 1 µM? Entry: COc1cc2nccc(Oc3ccc(NC(=O)C4(C(=O)Nc5ccc(F)cc5)CC4)cc3F)c2cc1Oc1ccc(N)cc1F
Result: 5%

Query: # query: inhibition at 1 µM of entry COc1cc2nccc(Oc3ccc(NC(=O)C4(NC(=O)c5ccc(F)cc5)CC4)cc3F)c2cc1Oc1ccc(N)cc1F
Result: 29%

Query: What value of inhibition at 1 µM has been reported for the following molecule? COc1cc2nccc(Oc3ccc(NC(=O)C4(NC(=O)c5ccc(F)cc5)CC4)cc3F)c2cc1Oc1c(F)cc(N)cc1F
Result: 37%

Query: Need inhibition at 1 µM, item COc1cc2nccc(Oc3ccc(NC(=O)C4(NC(=O)c5ccc(F)cc5)CC4)cc3F)c2cc1OC
Result: 22%

Query: Consider the molecule COc1cc2nccc(Oc3ccc(NC(=O)C4(C(=O)Nc5ccc(F)cc5)CC4)cc3)c2cc1OC [Cabozantinib, reference compound] and give its measured inhibition at 1 µM.
Result: 16%

* * *

Target: EPHA6 (Homo sapiens)
Sequence (Q9UF33 23-1036): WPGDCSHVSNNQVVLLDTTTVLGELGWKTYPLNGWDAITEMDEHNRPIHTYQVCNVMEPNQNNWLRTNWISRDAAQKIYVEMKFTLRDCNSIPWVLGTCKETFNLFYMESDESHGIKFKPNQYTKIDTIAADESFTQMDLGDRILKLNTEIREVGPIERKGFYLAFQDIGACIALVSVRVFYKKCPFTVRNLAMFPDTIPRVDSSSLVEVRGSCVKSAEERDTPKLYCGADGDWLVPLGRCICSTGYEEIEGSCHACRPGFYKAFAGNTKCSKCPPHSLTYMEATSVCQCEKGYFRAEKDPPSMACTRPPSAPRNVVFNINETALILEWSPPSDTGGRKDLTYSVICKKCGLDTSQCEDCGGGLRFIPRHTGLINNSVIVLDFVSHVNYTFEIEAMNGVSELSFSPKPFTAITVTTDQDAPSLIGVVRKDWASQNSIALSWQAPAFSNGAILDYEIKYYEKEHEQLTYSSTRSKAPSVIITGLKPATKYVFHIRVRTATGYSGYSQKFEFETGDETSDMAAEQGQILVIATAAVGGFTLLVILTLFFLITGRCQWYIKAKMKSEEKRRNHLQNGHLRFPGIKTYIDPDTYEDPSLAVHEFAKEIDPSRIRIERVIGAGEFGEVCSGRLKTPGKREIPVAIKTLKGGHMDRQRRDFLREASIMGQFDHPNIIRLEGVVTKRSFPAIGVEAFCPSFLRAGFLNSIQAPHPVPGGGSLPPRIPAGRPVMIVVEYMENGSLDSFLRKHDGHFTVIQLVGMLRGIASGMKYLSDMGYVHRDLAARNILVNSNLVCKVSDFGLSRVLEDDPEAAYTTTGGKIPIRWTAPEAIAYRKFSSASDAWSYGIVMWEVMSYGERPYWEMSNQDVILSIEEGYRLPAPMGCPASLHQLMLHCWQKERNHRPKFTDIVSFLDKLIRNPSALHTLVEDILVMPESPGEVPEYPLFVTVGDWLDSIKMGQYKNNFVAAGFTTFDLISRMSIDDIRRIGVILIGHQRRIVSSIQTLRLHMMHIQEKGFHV
Test: Tyrosine kinase inhibition assay
Assay type: biochemical
Conditions: single concentration 1.0 μM, read-out: percent inhibition
Overview of reported inhibition at 1 µM across a group of molecules:
// return numeric value only (unit: %, not printed)

Worked set:
Molecule: COc1cc2nccc(Oc3ccc(NC(=O)C4(C(=O)Nc5ccc(F)cc5)CC4)cc3)c2cc1OC [Cabozantinib, reference compound]
Measurement Kind: inhibition at 1 µM
Experimental Result: 103

Molecule: COc1cc2nccc(Oc3ccc(NC(=O)C4(NC(=O)c5ccc(F)cc5)CC4)cc3F)c2cc1OC [Cbo-02]
Measurement Kind: inhibition at 1 µM
Experimental Result: 75

Molecule: COc1cc2nccc(Oc3ccc(NC(=O)C4(C(=O)Nc5ccc(F)cc5)CC4)cc3F)c2cc1Oc1ccc(N)cc1F [Cbo-23]
Measurement Kind: inhibition at 1 µM
Experimental Result: 100

Query: # get_value(readout='inhibition at 1 µM', item= COc1cc2nccc(Oc3ccc(NC(=O)C4(NC(=O)c5ccc(F)cc5)CC4)cc3F)c2cc1Oc1c(F)cc(N)cc1F [Cbo-14] )
Result: 96

Query: May I ask what inhibition at 1 µM has been recorded for COc1cc2nccc(Oc3ccc(NC(=O)C4(NC(=O)c5ccc(F)cc5)CC4)cc3F)c2cc1Oc1ccc(N)cc1F [Cbo-10] ?
Result: 94
